# measured-on: human PARG (PARG-NanoLuc fusion in HEK293T cells) (Homo sapiens (Human))
# assay-text: PARG NanoBRET-based cellular target engagement assay
# test-context: HEK293T cells transfected with PARG-NanoLuc, NanoBRET probe 0.89 μM, 2 hours; read-out: PARG TE IC50
Documented IC50 across a set of compounds

Would you please look over these solved cases?
CO/N=c1\[nH]c2c(-c3ccc(C(=O)N(C)C)cc3)cc(S(=O)(=O)NC3(C)CC3)cc2c(=O)n1Cc1cnn(C)c1; < 0.03 µM
CO/N=c1\[nH]c2c(N3CCN(C(C)=O)[C@H](C)C3)cc(S(=O)(=O)NC3(C)CC3)cc2c(=O)n1Cc1cnn(C)c1; < 0.03 µM
CO/N=c1\[nH]c2c(-c3ccc(C(=O)N(C)C)c(C)c3)cc(S(=O)(=O)NC3(C)CC3)cc2c(=O)n1Cc1cnn(C)c1; < 0.03 µM

Exam item: Recorded IC50 for CO/N=c1\[nH]c2c(N3CCN(C(=O)N(C)C)[C@H](C)C3)cc(S(=O)(=O)NC3(C)CC3)cc2c(=O)n1Cc1cnn(C)c1 with human PARG (PARG-NanoLuc fusion in HEK293T cells) (Homo sapiens (Human)), please?
Marked response: < 0.03 µM

* * *

Documented IC50 across a set of compounds
# measured-on: human PARG (PARG-NanoLuc fusion in HEK293T cells) (Homo sapiens (Human), UniProt Q86W56)
# Sequence (Q86W56 whole entry, the tested form may be a part): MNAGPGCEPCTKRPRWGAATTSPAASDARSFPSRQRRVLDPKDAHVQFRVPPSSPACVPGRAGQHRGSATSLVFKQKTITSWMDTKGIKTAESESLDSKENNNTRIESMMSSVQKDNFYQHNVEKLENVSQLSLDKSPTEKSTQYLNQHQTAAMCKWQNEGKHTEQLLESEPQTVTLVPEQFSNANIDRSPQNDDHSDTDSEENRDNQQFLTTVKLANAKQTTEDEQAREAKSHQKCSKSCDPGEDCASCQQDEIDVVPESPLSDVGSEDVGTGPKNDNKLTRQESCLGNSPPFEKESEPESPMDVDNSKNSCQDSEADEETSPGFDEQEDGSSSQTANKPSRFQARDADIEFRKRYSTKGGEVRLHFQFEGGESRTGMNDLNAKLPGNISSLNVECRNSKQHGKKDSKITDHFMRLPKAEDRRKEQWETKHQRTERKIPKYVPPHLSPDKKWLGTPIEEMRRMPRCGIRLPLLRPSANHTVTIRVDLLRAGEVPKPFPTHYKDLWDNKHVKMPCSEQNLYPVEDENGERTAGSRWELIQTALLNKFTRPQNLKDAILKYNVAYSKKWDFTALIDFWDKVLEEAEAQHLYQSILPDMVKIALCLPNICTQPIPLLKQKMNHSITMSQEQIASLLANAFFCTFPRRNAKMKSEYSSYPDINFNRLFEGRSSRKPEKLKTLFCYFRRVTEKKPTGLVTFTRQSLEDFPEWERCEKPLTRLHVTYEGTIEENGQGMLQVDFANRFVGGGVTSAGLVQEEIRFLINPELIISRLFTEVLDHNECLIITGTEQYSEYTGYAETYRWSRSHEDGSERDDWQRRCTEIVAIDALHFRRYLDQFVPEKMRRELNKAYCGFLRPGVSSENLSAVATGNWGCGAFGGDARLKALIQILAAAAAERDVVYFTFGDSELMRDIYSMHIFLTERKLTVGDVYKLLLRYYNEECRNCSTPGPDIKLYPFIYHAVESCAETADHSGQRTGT
# assay-text: PARG NanoBRET-based cellular target engagement assay
# test-context: HEK293T cells transfected with PARG-NanoLuc, NanoBRET probe 0.89 μM, 2 hours; read-out: PARG TE IC50

CON=c1[nH]c2ccc(S(=O)(=O)NC3(C#N)CC3)cc2c(=O)n1Cc1cnn(C)c1; 30 to 99 nM
CO/N=c1\[nH]c2c(N3CCN[C@H](C)C3)cc(S(=O)(=O)NC3(C)CC3)cc2c(=O)n1Cc1cnn(C)c1; < 30 nM
CO/N=c1\[nH]c2c(N3CCN(C(=O)C(F)(F)F)[C@H](C)C3)cc(S(=O)(=O)NC3(C)CC3)cc2c(=O)n1Cc1cnn(C)c1; < 30 nM
CO/N=c1\[nH]c2c(N3CCN(C)[C@H](C)C3)cc(S(=O)(=O)NC3(C)CC3)cc2c(=O)n1Cc1cnn(C)c1; 30 to 99 nM

Exam item: Requested field: IC50. Item: CO/N=c1\[nH]c2c(C3CCN[C@H](C)C3)cc(S(=O)(=O)NC3(C)CC3)cc2c(=O)n1Cc1cnn(C)c1 (stereo partly shown)
Marked response: 100 to 1000 nM

Exam item: Requested field: IC50. Item: CO/N=c1\[nH]c2ccc(S(=O)(=O)NC3(C)COC3)cc2c(=O)n1Cc1cnn(C)c1
Marked response: 100 to 1000 nM

Exam item: Requested field: IC50. Item: CO/N=c1\[nH]c2c(N3CCN(C(=O)C4(C)CCC4)[C@H](C)C3)cc(S(=O)(=O)NC3(C)CC3)cc2c(=O)n1Cc1cnn(C)c1
Marked response: < 30 nM

* * *

# System: NCI-H1650
# assay-text: Modified cell proliferation assay (CellTiter-Glo), NCI-H1650
# Format: cell-based
# test-context: Homo sapiens, NCI-H1650; modified protocol, 384-well, 300 cells per well, 120 h; highest concentration tested 30000 nM; read-out: NCI-H1650 GI50 (high PARG dependency)
Documented GI50 across a set of molecules

Would you please look over these solved cases?
CO/N=c1\[nH]c2c(N3CCN(C(=O)C4(C)CCC4)[C@H](C)C3)cc(S(=O)(=O)NC3(C)CC3)cc2c(=O)n1Cc1cnn(C)c1 [Example 38]; < 500 nM
CO/N=c1\[nH]c2c(C3CCN(C(C)=O)[C@H](C)C3)cc(S(=O)(=O)NC3(C)CC3)cc2c(=O)n1Cc1cnn(C)c1 (stereo partly drawn) [Example 26]; 500 to 2000 nM
CO/N=c1\[nH]c2c(-c3ccc(CN)cc3)cc(S(=O)(=O)NC3(C)CC3)cc2c(=O)n1Cc1cnn(C)c1 [Example 17]; > 2000 nM
CO/N=c1\[nH]c2c(C3CCN(C)[C@H](C)C3)cc(S(=O)(=O)NC3(C)CC3)cc2c(=O)n1Cc1cnn(C)c1 (stereo partly drawn) [Example 25]; 500 to 2000 nM
CO/N=c1\[nH]c2c(N3CCN[C@H](C)C3)cc(S(=O)(=O)NC3(C)CC3)cc2c(=O)n1Cc1cnn(C)c1 [Example 7]; < 500 nM

Could you now look at the following molecule, please?
Exam item: Requested field: GI50. Item: CO/N=c1\[nH]c2c(N3CCN(C(=O)N(C)CC(F)(F)F)[C@H](C)C3)cc(S(=O)(=O)NC3(C)CC3)cc2c(=O)n1Cc1cnn(C)c1 [Example 37]
Marked response: < 500 nM

* * *

# Tested on: NCI-H1650
# assay-text: Modified cell proliferation assay (CellTiter-Glo), NCI-H1650
# Format: cell-based
# test-context: Homo sapiens, NCI-H1650; modified protocol, 384-well, 300 cells per well, 120 h; highest concentration tested 30000 nM; read-out: NCI-H1650 GI50 (high PARG dependency)
observation-type: GI50

Exam item: Requested field: GI50. Item: CO/N=c1\[nH]c2c(-c3ccc(C(C)=O)cc3)cc(S(=O)(=O)NC3(C)CC3)cc2c(=O)n1Cc1cnn(C)c1
Marked response: > 2000 nM

* * *

# measured-on: Recombinant His-tagged human PARG protein (Homo sapiens (Human))
# Sequence (Q86W56 whole entry): as the sequence (Q86W56 whole entry, the tested form may be a part) above
# assay-text: PARG enzymatic assay (TFMU-ADPr fluorescence)
# test-context: 1 nM enzyme, 200 μM TFMU-ADPr, read after 30 minutes
pIC50: −log10 of the molar value.
observation-type: pIC50

Would you please look over these solved cases?
CO/N=c1\[nH]c2c(N3CCN(C(=O)C(F)(F)C4(O)CCC4)[C@H](C)C3)cc(S(=O)(=O)NC3(C)CC3)cc2c(=O)n1Cc1cnn(C)c1 (single isomer, unassigned); > 7.52
CO/N=c1\[nH]c2c(-c3ccc(C(=O)N(C)C)c(C)c3)cc(S(=O)(=O)NC3(C)CC3)cc2c(=O)n1Cc1cnn(C)c1; > 7.52

Exam item: Requested field: pIC50. Item: CO/N=c1\[nH]c2c(N3CCN(C(C)=O)[C@H](C)C3)cc(S(=O)(=O)NC3(C)CC3)cc2c(=O)n1Cc1cnn(C)c1
Marked response: > 7.52

Exam item: Requested field: pIC50. Item: CO/N=c1\[nH]c2c(N3CCN(C(=O)N(C)CC(F)(F)F)[C@H](C)C3)cc(S(=O)(=O)NC3(C)CC3)cc2c(=O)n1Cc1cnn(C)c1
Marked response: > 7.52

Exam item: Requested field: pIC50. Item: CO/N=c1\[nH]c2c(-c3ccc(C(C)=O)cc3)cc(S(=O)(=O)NC3(C)CC3)cc2c(=O)n1Cc1cnn(C)c1
Marked response: > 7.52

* * *

# Tested on: NCI-H1650
# assay-text: Modified cell proliferation assay (CellTiter-Glo), NCI-H1650
# Assay type: cell-based
# test-context: Homo sapiens, NCI-H1650; modified protocol, 384-well, 300 cells per well, 120 h; highest concentration tested 30000 nM; read-out: NCI-H1650 GI50 (high PARG dependency)
observation-type: GI50

CO/N=c1\[nH]c2c(N3CCN(C(=O)C4(C#N)CC4)[C@H](C)C3)cc(S(=O)(=O)NC3(C)CC3)cc2c(=O)n1Cc1cnn(C)c1; < 500 nM
CO/N=c1\[nH]c2c(-c3ccc(C(=O)C4(C)CC4)cc3)cc(S(=O)(=O)NC3(C)CC3)cc2c(=O)n1Cc1cnn(C)c1; 500 to 2000 nM
CO/N=c1\[nH]c2c(-c3ccc(C(=O)N(C)C)nc3)cc(S(=O)(=O)NC3(C)CC3)cc2c(=O)n1Cc1cnn(C)c1; 500 to 2000 nM

Exam item: Requested field: GI50. Item: CO/N=c1\[nH]c2c(-c3ccc(C(=O)N(C)C)cn3)cc(S(=O)(=O)NC3(C)CC3)cc2c(=O)n1Cc1cnn(C)c1
Marked response: 500 to 2000 nM

Exam item: Requested field: GI50. Item: CO/N=c1\[nH]c2c(N3CCN(C(=O)N4CCC(F)(F)C4)[C@H](C)C3)cc(S(=O)(=O)NC3(C)CC3)cc2c(=O)n1Cc1cnn(C)c1
Marked response: < 500 nM

* * *

# measured-on: Recombinant His-tagged human PARG protein (Homo sapiens (Human))
# assay-text: PARG enzymatic assay (TFMU-ADPr fluorescence)
# test-context: 1 nM enzyme, 200 μM TFMU-ADPr, read after 30 minutes
observation-type: IC50

Would you please look over these solved cases?
CO/N=c1\[nH]c2ccc(S(=O)(=O)NC3(C)COC3)cc2c(=O)n1Cc1cnn(C)c1 [Example 2]; 0.03 to 0.099 µM
CCO/N=c1\[nH]c2ccc(S(=O)(=O)NC3(C)CC3)cc2c(=O)n1Cc1cnn(C)c1 [Example 10]; < 0.03 µM
CON=c1[nH]c2ccc(S(=O)(=O)NC3(C#N)CC3)cc2c(=O)n1Cc1cnn(C)c1 [Example 9]; < 0.03 µM
CO/N=c1\[nH]c2c(N3CCN(C(=O)N(C)C4CC4)[C@H](C)C3)cc(S(=O)(=O)NC3(C)CC3)cc2c(=O)n1Cc1cnn(C)c1 (single isomer, unassigned) [Example 44]; < 0.03 µM
CO/N=c1\[nH]c2ccc(S(=O)(=O)NC3(C)CC3)cc2c(=O)n1Cc1cnc(C)s1 [Example 1]; < 0.03 µM

Could you now look at the following compound, please?
Exam item: Requested field: IC50. Item: CO/N=c1\[nH]c2ccc(S(=O)(=O)NC3(C)CC3)cc2c(=O)n1Cc1cnn(C(F)(F)F)c1 [Example 6]
Marked response: 0.1 to 1 µM
